system: 171881-019-R-J1-PDC multicell spheroid viability; experiment: Anticancer human tumor 171881-019-R-J1-PDC patient-derived invasive breast carcinoma cell line growth inhibition [IpAb]; settings: second compound 0.1 µM; first compound 0.1 µM; stronger effect = lower value
Task for the reader: assign each of the following molecules its reported viability, T/C.
Numeric answer only, unit % assumed.

Task: Value wanted: viability, T/C (171881-019-R-J1-PDC multicell spheroid viability) of entry COc1c(OCCCN2CCOCC2)ccc2c3n(c(=NC(=O)c4cnc(N)nc4)nc12)CCN3 + CC(C)NCC(C(=O)N1CCN(c2ncnc3c2C(C)CC3O)CC1)c1ccc(Cl)cc1
Result: 3.96

Task: Value wanted: viability, T/C (171881-019-R-J1-PDC multicell spheroid viability) of entry Cn1ncc(Cl)c1-c1cc(C(=O)NC(CN)Cc2cccc(F)c2)sc1Cl (stereo not drawn) + CC(C)NCC(C(=O)N1CCN(c2ncnc3c2C(C)CC3O)CC1)c1ccc(Cl)cc1
Result: 67.3

Task: Value wanted: viability, T/C (171881-019-R-J1-PDC multicell spheroid viability) of entry Cn1nccc1Nc1nccc(-c2ccn(C(CO)c3ccc(Cl)c(F)c3)c(=O)c2)n1 (stereo not drawn) + CC(C)NCC(C(=O)N1CCN(c2ncnc3c2C(C)CC3O)CC1)c1ccc(Cl)cc1
Result: 65.8

----------
system: 171881-019-R-J1-PDC multicell spheroid viability; assay: Anticancer human tumor 171881-019-R-J1-PDC cell line growth inhibition [IpAb]; conditions: second compound 0.316 µM; first compound 0.949 µM; stronger effect = lower value;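 also: spheroids exposed to the agents for seven days before readout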
METRIC NAME: viability, T/C (%)
Numeric answer only, unit % assumed.

Task: Can you look up the measured viability, T/C of Cn1cnc2c(F)c(Nc3ccc(Br)cc3Cl)c(C(=O)NOCCO)cc21 + CC(C)NCC(C(=O)N1CCN(c2ncnc3c2C(C)CC3O)CC1)c1ccc(Cl)cc1 for me?
Result: 14.2

Task: Can you look up the measured viability, T/C of Cn1cnc2c(F)c(Nc3ccc(Br)cc3Cl)c(C(=O)NOCCO)cc21 + CCN1CCN(Cc2ccc(Nc3ncc(F)c(-c4cc(F)c5nc(C)n(C(C)C)c5c4)n3)nc2)CC1 for me?
Result: 63.4

Task: Can you look up the measured viability, T/C of CC(C)(C)c1cnc(CSc2cnc(NC(=O)C3CCNCC3)s2)o1 + CCN1CCN(Cc2ccc(Nc3ncc(F)c(-c4cc(F)c5nc(C)n(C(C)C)c5c4)n3)nc2)CC1 for me?
Result: 0.27

Task: Can you look up the measured viability, T/C of CC(C)(C)c1cnc(CSc2cnc(NC(=O)C3CCNCC3)s2)o1 + CC(C)NCC(C(=O)N1CCN(c2ncnc3c2C(C)CC3O)CC1)c1ccc(Cl)cc1 for me?
Result: 0.25

----------
test system: 171881-019-R-J1-PDC multicell spheroid viability; assay: Anticancer human tumor 171881-019-R-J1-PDC cell line growth inhibition [IpAb]; details: second compound 0.316 µM; first compound 0.3 µM; active = viability on the fitted dose curve at most 10% of control; inactive = the rest;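 also: spheroids exposed to the agents for seven days before readout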
Write down one outcome, taken from class 1 for active, class 0 for inactive

Task: Any idea what this test logged for CC(C)(C)c1cnc(CSc2cnc(NC(=O)C3CCNCC3)s2)o1 + CC(C)NCC(C(=O)N1CCN(c2ncnc3c2C(C)CC3O)CC1)c1ccc(Cl)cc1 ?
Result: class 1

Task: Any idea what this test logged for CC(=O)c1c(C)c2cnc(Nc3ccc(N4CCNCC4)cn3)nc2n(C2CCCC2)c1=O + CC(C)NCC(C(=O)N1CCN(c2ncnc3c2C(C)CC3O)CC1)c1ccc(Cl)cc1 ?
Result: class 0

Task: Any idea what this test logged for Cn1cnc2c(F)c(Nc3ccc(Br)cc3Cl)c(C(=O)NOCCO)cc21 + CCN1CCN(Cc2ccc(Nc3ncc(F)c(-c4cc(F)c5nc(C)n(C(C)C)c5c4)n3)nc2)CC1 ?
Result: class 0

Task: Any idea what this test logged for CC(C)(C)c1cnc(CSc2cnc(NC(=O)C3CCNCC3)s2)o1 + CCN1CCN(Cc2ccc(Nc3ncc(F)c(-c4cc(F)c5nc(C)n(C(C)C)c5c4)n3)nc2)CC1 ?
Result: class 1

Task: Any idea what this test logged for CC(=O)c1c(C)c2cnc(Nc3ccc(N4CCNCC4)cn3)nc2n(C2CCCC2)c1=O + CCN1CCN(Cc2ccc(Nc3ncc(F)c(-c4cc(F)c5nc(C)n(C(C)C)c5c4)n3)nc2)CC1 ?
Result: class 0

Task: Any idea what this test logged for Cn1cnc2c(F)c(Nc3ccc(Br)cc3Cl)c(C(=O)NOCCO)cc21 + CC(C)NCC(C(=O)N1CCN(c2ncnc3c2C(C)CC3O)CC1)c1ccc(Cl)cc1 ?
Result: class 0

Values were extracted from PubChem BioAssay AID2060342.
